We begin with a simple list: items and their reported cyt c (composite Z-score).
- Test system: cytochrome c
- Format: cell-based, mouse
- conditionsUsed: Conc 20 μM; normalized score vs mock-treated (DMSO) wells
Give the value as a plain number.

Record excerpt, results attached:
C/C1=C\CC(C)(C)/C=C/CC2(C)OC2CC1 (stereo not drawn)    0.979
CC(C)CCC[C@@H](C)[C@H]1CC[C@H]2[C@@H]3C[C@@H](O)[C@@]4(O)C[C@@H](O)CC[C@]4(C)[C@H]3CC[C@]12C    0.815

Turning now to a further record.
Problem: Name the recorded cyt c (composite Z-score) for COc1cc2c(cc1-c1coc3c4c(c(OC)cc3c1=O)OC(C)(C)C=C4)OCO2 [ichthynone, reference compound] .
Solution: 0.001

* * *

- System: mitochondrial membrane potential
- Assay type: cell-based, mouse
- conditionsUsed: 20 μM; composite Z-score vs DMSO
measuredParameter: ΔΨm
// keep it numeric: no unit symbol after the value

The examples below pair each entry with its known result.
NC(=O)c1cc([N+](=O)[O-])cc([N+](=O)[O-])c1 [nitromide]    1.648
Cc1onc(-c2ccccc2Cl)c1C(=O)N[C@@H]1C(=O)N2[C@@H]1SC(C)(C)[C@@H]2C(=O)O    −0.339
COc1cc2ccc(=O)oc2cc1O    −0.056
CC(=O)OCC[N+](C)(C)C    −0.520
NS(=O)(=O)c1cc(C2(O)NC(=O)c3ccccc32)ccc1Cl (centres unmarked)    −0.257

Problem: Returns the measured ΔΨm for the input molecule. Input: C=C[C@H]1CN2CC[C@H]1C[C@H]2[C@H](OC(=O)OCC)c1ccnc2ccc(OC)cc12 [quinine ethyl carbonate]
Solution: −0.661

Problem: Name the recorded ΔΨm for COC1=C[C@@H](C)[C@@H]2C[C@H]3OC(=O)C[C@H]4C(C)=C(OC)C(=O)[C@H]([C@@]2(C)C1=O)[C@@]34C [quassin, reference compound] .
Solution: 0.033

Problem: Which ΔΨm is listed for CC(C)[N+](C)(CCOC(=O)C1c2ccccc2Oc2ccccc21)C(C)C ?
Solution: −0.082

* * *

- Tested on: nuOXPHOS transcripts
- Format: cell-based, mouse
- conditionsUsed: Conc 20 μM; normalized score vs mock-treated (DMSO) wells
measuredParameter: nucOX (composite Z-score)
Form field (numeric): enter value without unit.

Below, each entry is followed by its recorded nucOX (composite Z-score) result.
O=C1c2ccc(O)cc2OC(c2cc(O)c(O)c(O)c2)C1O (stereo in doubt) [dihydrorobinetin, reference compound]    −1.089
O=C(/C=C/c1ccccc1)c1ccc(O[C@@H]2O[C@H](CO)[C@@H](O)[C@H](O)[C@H]2O)cc1O [2′,4′-dihydroxychalcone 4′-glucoside]    −0.247
CO[C@H]1C[C@H](O[C@H]2CC[C@]3(C=O)[C@H]4CC[C@]5(C)[C@@H](C6=CC(=O)OC6)CC[C@]5(O)[C@@H]4CC[C@]3(O)C2)O[C@H](C)[C@H]1O [cymarin]    −0.412
CC(=O)O[C@H]1CC[C@]2(C)C3=CC(=O)[C@]4(C)[C@@H]5[C@H](C[C@H]4[C@@H]3CC[C@H]2C1)O[C@@]1(OCC(C)CC1Br)[C@H]5C (stereo partly shown)    −0.585
CC[C@@]1(O)C(=O)OCc2c1cc1n(c2=O)Cc2cc3cc(O)ccc3nc2-1 [10-hydroxycamtothecin]    −1.180

Problem: What measured nucOX (composite Z-score) goes with CC(C)c1ccc2c(c1)CCC1[C@](C)(CN)CCC[C@]21C.O=S(=O)(O)O (stereo partly shown) [18-aminoabieta-8,11,13-triene sulfate] ?
Solution: −0.771

Problem: Look up nucOX (composite Z-score) for this molecule: CCN1C[C@]2(C)CC[C@H](OC)[C@@]34C1[C@]1(OCO[C@@]15C[C@H](OC)[C@H]1C[C@]3(O)[C@@H]5[C@H]1OC)[C@@H](OC(C)=O)[C@H]24 [deltaline]
Solution: −0.062

Problem: Any idea what nucOX (composite Z-score) was measured for COc1ccc(-c2c(OC)c3c(OC)c4c(cc3oc2=O)OC(C)(C)C=C4)cc1 [robustic acid methyl ether, reference compound] ?
Solution: 0.444

Problem: // query nucOX (composite Z-score) value for entry Sc1nc2ccccc2s1 [2-mercaptobenzothiazole]
Solution: −0.231

* * *

- Test system: cytochrome c
- Type: cell-based, mouse
- conditionsUsed: composite Z-score vs mock-treated (DMSO) wells; concentration of each compound in μM
measuredParameter: cyt c
# output: bare number, no unit

The following compounds have reported results that may help.
COC(=O)C1=CO[C@@H](C)[C@@H]2CN3CCc4c([nH]c5ccccc45)[C@@H]3C[C@H]12 [tetrahydroalstonine]    1.439
C[C@@H]1[C@H](O)[C@@H](C)/C=C/C=C/CC/C=C/C=C/C=C/C=C/C(O[C@H]2O[C@H](C)[C@@H](O)[C@H](N)[C@@H]2O)CC2O[C@](O)(CC(O)C(O)CCC(O)CC(O)CC(O)CC(=O)O[C@H]1C)CC(O)C2C(=O)O (stereo partly shown)    0.061
CC(C)N1CCN(c2ccc(OCC3COC(Cn4cncn4)(c4ccc(Cl)cc4Cl)O3)cc2)CC1 (stereo not shown)    0.552

Problem: Consider the compound shown here: C/C1=C2/[N-][C@H]([C@H](CC(N)=O)[C@@]2(C)CCC(=O)NC[C@@H](C)OP(=O)([O-])O[C@H]2[C@@H](O)[C@@H](n3cnc4cc(C)c(C)cc43)O[C@@H]2CO)[C@]2(C)N=C(/C(C)=C3N=C(/C=C4N=C1[C@@H](CCC(N)=O)C\4(C)C)[C@@H](CCC(N)=O)[C@]\3(C)CC(N)=O)[C@@H](CCC(N)=O)[C@]2(C)CC(N)=O.[Co] What is its recorded cyt c?
Solution: −0.617

* * *

- System: C2C12 myotubes
- conditionsUsed: 20 μM; composite Z-score vs DMSO
measuredParameter: Viability
Answer with a bare number; do not write a unit.

See these solved cases before continuing.
CN1Cc2c(N)cccc2C(c2ccccc2)C1 (stereo not shown)    0.525
CCN(CC)CCNC(=O)c1cc(S(C)(=O)=O)ccc1OC [tiapride]    1.174
COc1ccc([C@@H]2CC(=O)c3c(O)cc(O[C@@H]4O[C@H](CO[C@@H]5O[C@@H](C)[C@H](O)[C@@H](O)[C@H]5O)[C@@H](O)[C@H](O)[C@H]4O)cc3O2)cc1O    0.694

From here, focus on the item given below.
Problem: // returns reported Viability for input COC(=O)C1=CCCN(C)C1
Solution: 0.018

* * *

- System: cellular dehydrogenase activity
- conditionsUsed: composite Z-score vs mock-treated (DMSO) wells; Conc 20 μM
Listing of recorded MTT by entry.
// keep it numeric: no unit symbol after the value

COC(=O)[C@H](O)[C@H]1C(C)(C)[C@H](OC(C)=O)[C@@H]2CC3=C4CC(=O)O[C@@H](c5ccoc5)[C@]4(C)CC[C@@H]3[C@@]1(C)C2=O [swietenolide-3-acetate]    −0.776
CC1(C)OC(=O)C=CC2(C)C1CC(O)C1(C)C2CCC2(C)C(c3ccoc3)OC(=O)C3OC321 (stereo not drawn)    −0.982

Problem: For the molecule shown here, CC(=O)OC1CC2C(C)(C)[C@@H](O)CC[C@]2(C)C2CC[C@]3(C)[C@H](c4ccoc4)OC(=O)[C@H]4O[C@]43[C@]12C (stereo partly drawn) [3beta-hydroxydeoxodihydrogedunin] , give the reported MTT.
Solution: −0.540

Problem: Entry CCC(C)C(=O)OC1[C@@H]2CC3=C4CC(=O)O[C@@H](c5ccoc5)[C@]4(C)CCC3[C@@](C)(C2=O)[C@@H](CC(=O)OC)C1(C)C (stereo partly drawn) : reported MTT = ?
Solution: −0.812

Problem: Which MTT is reported for this molecule? COC[C@]12CN(C=O)[C@@H]3[C@@H]4[C@H](OC)[C@H]1[C@@]3([C@@H](OC)C[C@H]2O)[C@@H]1C[C@@]2(O)[C@H](OC(=O)c3ccccc3)[C@@H]1[C@]4(OC(C)=O)[C@@H](O)[C@@H]2OC
Solution: −1.730

* * *

- Test system: cellular dehydrogenase activity
- conditionsUsed: composite Z-score vs mock-treated (DMSO) wells; concentration of each compound in μM
Where a SMILES comes first, the peptide text is derived from it. Bridges are numbered along the chain shown (N, C = ends). [ ]: non-standard residue; d: D form. The star is where a group is joined. Ileψ(thiazoline)Cys = CC[C@H](C)[C@H](N)C1=N[C@H](C(=O)*)CS1; dOrn = NCCC[C@@H](N)C(=O)O
MTT below -0.7 gives condition not met; MTT at or above it gives condition met.

CC[C@H](C)[C@H](N)C1=N[C@H](C(=O)N[C@@H](CC(C)C)C(=O)N[C@H](CCC(=O)O)C(=O)N[C@H](C(=O)N[C@H]2CCCCNC(=O)[C@H](CC(N)=O)NC(=O)[C@@H](CC(=O)O)NC(=O)[C@H](Cc3cnc[nH]3)NC(=O)[C@@H](Cc3ccccc3)NC(=O)[C@H]([C@@H](C)CC)NC(=O)[C@@H](CCCN)NC2=O)[C@@H](C)CC)CS1 [bacitracin] ({Ileψ(thiazoline)Cys}-L[dE]IK[dOrn]I[dF]H[dD]N; lactam 4-C)    condition met
O=C(CC[N+](=O)[O-])OC[C@H]1O[C@@H](O)[C@H](OC(=O)CC[N+](=O)[O-])[C@@H](OC(=O)CC[N+](=O)[O-])[C@@H]1OC(=O)CC[N+](=O)[O-]    condition not met

Problem: Entry CC(C(=O)O)[C@H]1CCC2C3CC=C4C[C@@H](O)CC[C@]4(C)C3CC[C@@]21C (some centres unmarked) : is its MTT no less than -0.7?
Solution: condition met

Problem: Answer whether MTT of C/C1=C2/[N-][C@H]([C@H](CC(N)=O)[C@@]2(C)CCC(=O)NC[C@@H](C)OP(=O)([O-])O[C@H]2[C@@H](O)[C@@H](n3cnc4cc(C)c(C)cc43)O[C@@H]2CO)[C@]2(C)N=C(/C(C)=C3N=C(/C=C4N=C1[C@@H](CCC(N)=O)C\4(C)C)[C@@H](CCC(N)=O)[C@]\3(C)CC(N)=O)[C@@H](CCC(N)=O)[C@]2(C)CC(N)=O.[Co] is greater than or equal to -0.7.
Solution: condition not met

From: patent US20090143279A1
